system: Acinetobacter baumannii ATCC17961; experiment: Antimicrobial susceptibility testing: 90% growth inhibitory concentration (IC90) determination, Iso-Sensitest broth; assay type: cell-based; conditions: Acinetobacter baumannii, ATCC17961, 90% growth inhibitory concentration, Acinetobacter baumannii ATCC17961, Iso-Sensitest broth; read-out: ATCC 17961 IC90
Structures can show the parent of a compound that is named as a salt.
Test Readout: IC90 (nM)

Reference set, count: 8
Cn1c(-c2ccc(OC(F)F)c(F)c2F)cnc1C(=O)Nc1ccc(C(=O)N2CCN(C(=O)C[C@@H]3CCCN3)CC2)c(Cl)c1 [Example 224, formate]    30
COc1ccc(-c2cnc(C(=O)Nc3ccc(C(=O)N4CCN(C(=O)CCCC(N)=O)CC4)c(Cl)c3)n2C)c(F)c1F [Example 122]    90
CN(C)C(=O)c1ccc(-c2cnc(C(=O)Nc3ccc(C(=O)N4CCN(C(=O)C5CCNCC5)CC4)c(Cl)c3)n2C)c(F)c1F [Example 263, formate]    6060
COc1ccc(-c2cnc(C(=O)Nc3ccc(C(=O)N4CCN(C(=O)[C@@H]5CCN5)CC4)c(Cl)c3)n2C)c(F)c1F [Example 150, formate]    80
Cn1c(-c2ccc(OC(F)F)c(F)c2F)cnc1C(=O)Nc1ccc(C(=O)N2CCC(C(=O)N[C@H]3CNC[C@H]3F)CC2)c(Cl)c1 [Example 44, trifluoroacetate]    30
COc1ccc(-c2cnc(C(=O)Nc3ccc(C(=O)N4CCN(C(=O)C5CCNCC5)CC4)c(Cl)c3)n2C)cc1C#N [Example 192, formate]    460
COc1ccc(-c2cnc(C(=O)Nc3ccc(C(=O)N4CCN(C(=O)CCCCN)CC4)c(Cl)c3)n2C)c(F)c1F [Example 124, formate]    40
COc1ccc(-c2cnc(C(=O)Nc3ccc(C(=O)N4CCN(C(=O)C56CC(N)(C5)C6)CC4)c(Cl)c3)n2C)c(F)c1F [Example 132, formate]    70

P: Cn1c(-c2ccc(OCC#N)c(F)c2F)cnc1C(=O)Nc1ccc(C(=O)N2CCN(C(=O)[C@@H]3C[C@H](N)CN3)CC2)c(Cl)c1 [Example 209]
Q: Cn1c(-c2ccc(OCF)c(F)c2F)cnc1C(=O)Nc1ccc(C(=O)N2CCN(C(=O)C[C@@H]3CCNC3)CC2)c(Cl)c1 [Example 158, formate]
R: COc1ccc(-c2cnc(C(=O)Nc3ccc(C(=O)N4CCN(S(=O)(=O)C5CCNCC5)CC4)c(Cl)c3)n2C)c(F)c1F [Example 216, formate]
S: COc1ccc(-c2cnc(C(=O)Nc3ccc(C(=O)N4CCC(NC(=O)C5CCNCC5)C4)c(Cl)c3)n2C)c(F)c1F (stereo not drawn) [Example 110, formate]
Sort entries by IC90 from minimum to maximum value. Give the labels in the order requested.
Q, P, R, S
